Please provide measured melting point for the entries that follow.

[ask] Look up and report measured melting point for this entry: COc1cc(OC)c(/C=C/S(=O)(=O)Nc2ccc(OC)c(NC(C)=O)c2)c(OC)c1
[reply] 296 to 298 °C

[ask] Recall and state the measured melting point for Cc1cc(-c2cc(C(F)F)n3ncc(C(=O)O)c3n2)ccc1Cl .
[reply] 238 °C

[ask] Supply recorded melting point for CC1(C)Oc2ccc(S(=O)(=O)C(F)(F)F)cc2[C@@H](N2Cc3ccc([N+](=O)[O-])cc3C2=O)[C@@H]1O (relative stereo) here.
[reply] 264 to 266 °C

[ask] Supply reported melting point belonging to this molecule: CSc1c[nH]c2ccc(C)cc12
[reply] 136 to 137 °C

[ask] // fetch melting point given entry CCSCc1c(CCN(C)C)[nH]c2ccccc12
[reply] 59 to 61 °C

[ask] Specify melting point for COC(=O)c1cc2nccnc2cc1N and stop.
[reply] 180 to 182 °C

====

REPORTED_ENDPOINT: melting point

[ask] Answer with the recorded melting point of CCOC(=O)c1nccn1C1Cc2ccccc2C1=O (stereo unspecified) only.
[reply] 116 °C

[ask] # return recorded melting point for entry CCOC(=O)c1cn(CC)c2sc(Br)cc2c1=O
[reply] 153 to 156 °C

[ask] Give the reported melting point for this molecule. CCS(=O)(=O)c1nsc(NC(=O)N(C)C)c1C#N
[reply] 188 to 189 °C

[ask] Please list melting point recorded for the molecule Cc1sc(N)c(C(=O)c2cccc(C(F)(F)F)c2)c1C
[reply] 103 to 105 °C

[ask] Supply recorded melting point for CCOC(=O)C1=CNC(COCCN)=C(C(=O)OC)C1c1cccc(Cl)c1Cl (stereo unspecified) here.
[reply] 131 to 132 °C

[ask] Please indicate melting point recorded for CC(C)(CO)n1cnc2c(N)nc3ccccc3c21
[reply] 277 to 281 °C

[ask] // fetch melting point given entry CC(C)(C#N)NC(=O)c1ccccc1Cl
[reply] 59 to 65 °C

[ask] Determine from records and report melting point for COc1c(N2CC3CCCC3(N)C2)c(F)cc2c(=O)c(C(=O)O)cn(C3CC3F)c12 (stereo unspecified)
[reply] 169 to 172 °C

[ask] # return recorded melting point for entry CCCCCCCCCCCCNC(=O)COc1ccc(/C=C/C(=O)C(F)(F)F)cc1
[reply] 78.5 to 79 °C

[ask] Note melting point for the molecule shown: CC(C)CCC(O)C(CC1CCCCC1)NC(=O)C(Cc1c[nH]cn1)N(C)C(=O)C(Cc1ccccc1)OC(=O)N1CCOCC1 (stereo unspecified)
[reply] 91 to 95 °C

[ask] Answer with the recorded melting point of Nc1ccc(C=C2NC(=O)NC2=O)cc1 only.
[reply] 300 °C

[ask] Assign melting point to the following record: CC(C)c1cccc(C(C)C)c1NC(=O)N(Cc1ccccc1)CC1(c2ccccc2)CCCC1
[reply] 124 to 127 °C

[ask] Give the value of melting point reported for the following: CCCn1c(=O)c(C(=O)OCC)c(N)c2cccnc21
[reply] 165 to 168 °C

[ask] Identify measured melting point associated with CCCCCCCCCCCC(=O)Nc1ccc(NC(=O)CCNC(=O)C2OC(C)(C)OCC2(C)C)cc1 (stereo unspecified)
[reply] 144 to 145 °C

[ask] Determine from records and report melting point for CC(COc1ccc2ccc(N)nc2n1)CN(C)C (stereo unspecified)
[reply] 108 °C

[ask] Report melting point for CN1CCN(C(=O)c2ccc(-c3cnc4c(c3)N(C(=O)c3cc(F)ccc3F)CCN4)cc2)CC1
[reply] 201 to 203 °C

[ask] Entry CN1CCC(CNC(=O)c2ccc(-c3[nH]nc4c3C(=O)c3c(NC(=O)NN5CCOCC5)cccc3-4)s2)C1 (stereo unspecified) needs its melting point filled in; supply it.
[reply] 151 to 153 °C

[ask] Report melting point, nothing else, for this molecule: Clc1ccc(-c2ccc(C=CC3COC4(CCCCC4)OO3)cc2)cc1 (stereo unspecified)
[reply] 109 to 111 °C

[ask] Given the molecule CC(C)CN1N=C2C=NC(c3ccccc3)=CN2C1CC(=O)O (stereo unspecified) , write its reported melting point.
[reply] 160 °C

[ask] Give a short answer stating reported melting point for CCOC(=O)c1cnc2ccc(Cl)nn2c1=O .
[reply] 149 to 152 °C

[ask] Please report the measured melting point for CSc1ccc(-c2nc(S)[nH]c2-c2ccc(SC)cc2)cc1
[reply] 280 °C

====

Please respond with reported melting point for every item in the list.
Report the value in °C with no unit label.

[ask] Specify measured melting point for N#CCCNC1(CC2CCCCC2)C(=O)Nc2ccc(Cl)cc21 (stereo not given) .
[reply] 208

[ask] Hello, please tell me recorded melting point for this one: O=S(=O)(N=Cc1ccc(Cl)cc1)c1ccc(Cl)cc1
[reply] 128

====

So I've got a bunch of molecules here, and I need their melting point values.

[ask] Give the value of melting point reported for the following: COC(=O)c1cc(Cl)sc1S(=O)(=O)Cl
[reply] 95 to 97 °C

[ask] Output melting point of CCOc1cccnc1CSCCNC(=C[N+](=O)[O-])NC
[reply] 130 to 131 °C

[ask] Please report melting point for the following molecule: CCCC(=O)NNC(=O)c1ccncc1
[reply] 142 °C

[ask] Dear colleague, please send me the reported melting point for CC1(C)[C@H]2[C@H](O)OC(=O)[C@H]21 when you can.
[reply] 116 °C

[ask] // Input: NC(=O)N(O)CCOCc1ccco1 . Output its melting point only.
[reply] 72 to 75 °C

[ask] Using known records, supply melting point for CC(=O)Nc1cccc(C#Cc2c(F)c(F)nc(F)c2F)c1
[reply] 215 to 216 °C

[ask] Entry CCOC(=O)c1ncn(-c2nccs2)c1N needs its melting point filled in; supply it.
[reply] 120 to 123 °C

[ask] Retrieve melting point measured for Cn1c([N+](=O)[O-])cnc1C1=NOC2OCCCC12 (configuration not stated) and print it.
[reply] 140 to 142 °C

[ask] Please look at this molecule and report its melting point: CC(C)c1ccc(OC(Cc2ccc(OCCNC(=O)c3ccc(-c4ccc(N(C)C)cn4)cc3)cc2)C(=O)O)cc1 (configuration not stated)
[reply] 150 to 151 °C

[ask] Specify measured melting point for COCCOC(=O)C(=O)Nc1nc(-c2ccccc2)cs1 .
[reply] 118 to 120 °C

[ask] Quickly give me recorded melting point for CC(C)(C)c1ccc(C#N)cc1NC(=O)NCc1ccccc1
[reply] 160 to 161 °C

[ask] Return melting point (reported value) for this molecule: OCc1cc2c(F)ccc(Br)c2s1
[reply] 80 to 81 °C

[ask] Specify melting point for CCCCCCc1ccc(-n2c(-c3ccc(Br)cc3)ccc2-c2ccc(Br)cc2)cc1 and stop.
[reply] 198 to 199 °C

[ask] Name the recorded melting point of the item O=C(O)c1cc2cc(-c3ccccc3)ccc2o1 in your answer.
[reply] 220 to 221 °C

[ask] Note down melting point recorded for CCn1cc2c(n1)c(=O)[nH]c1ccccc12
[reply] > 250 °C

[ask] Let me know recorded melting point for O=[N+]([O-])c1cn2c(n1)O[C@@H](COc1ccc(N3CCC(Nc4ccc(OC(F)(F)F)cc4)CC3)cc1)CC2 , thanks.
[reply] 189 to 190 °C

[ask] Note melting point for the molecule shown: COc1ccc(S(=O)(=O)N2C(=O)C(c3cc(C)ccc3OC)(N3C[C@H](O)C[C@H]3C(=O)N(C)C)c3cc(Cl)ccc32)c(OC(F)(F)F)c1 (some centres not stated)
[reply] 192 to 193 °C

[ask] For the molecule C[C@@H]1CC[C@@H](C(C)(C)c2ccccc2)[C@@H](Oc2cn(C(c3ccccc3)c3ccccc3)c(=O)o2)C1 , give its reported melting point.
[reply] 118 to 120 °C

[ask] Answer with the recorded melting point for the molecule listed here: CCn1cc(C(=O)O)c(=O)c2cc(F)c(N3CCN(S(=O)(=O)c4ccc(F)cc4)CC3)c(F)c21
[reply] 243 to 244 °C

[ask] For the molecule Cc1ccc2cccc(OCc3c(Cl)ccc(N(C)C(=O)CN4C(=O)c5ccccc5C4=O)c3Cl)c2n1 , report melting point.
[reply] 204 °C

[ask] Find the measured melting point of COc1ccc(C(=CC=Cc2ccc(N(c3ccc(C)cc3)c3ccc(C)cc3)cc2)c2ccc(OC)cc2)cc1 and report it.
[reply] 133 to 135 °C

[ask] Report melting point, nothing else, for this molecule: CC1(C)CC(c2ccc(Cl)cc2)=C(c2ccc(S(N)(=O)=O)cc2)C1
[reply] 144 to 145 °C

[ask] For the molecule CCC1(c2cccc(OC)c2)CCCCN(C)C1=O (configuration not stated) , give its reported melting point.
[reply] 62 to 64 °C

[ask] Quote melting point reported for CSC(SC)=C(C(=O)C(C)(C)C)n1cncn1 please.
[reply] 60 °C

[ask] # return recorded melting point for input N#Cc1ccc(-c2n[nH]c3c2Cc2ccccc2-3)cc1
[reply] 245 °C

[ask] Could you please provide reported melting point for Clc1csc2c(Cl)cccc12 ? Thanks!
[reply] 100 to 102 °C

[ask] In one line, give reported melting point of the entry COc1cc2c(cc1OC)N(C(=O)c1ccc(-c3ccccc3C(F)(F)F)c(C)c1)Cc1ccc(C(=O)N(C)CC(O)CO)n1C2 (configuration not stated) .
[reply] 184 to 186 °C

[ask] State, in one line, measured melting point of CC1(O)CC(=O)OC(CCc2ccc(Cl)cc2)C1 (configuration not stated)
[reply] 61 to 64 °C

[ask] Indicate the recorded melting point value for this molecule: C=CC(=O)Oc1ccc(Cl)c2c1Sc1ccccc1C2
[reply] 164 to 165 °C

[ask] Hello, please tell me recorded melting point for this one: COC(=O)c1ccc(OC)c(CC2COc3ccc(OCc4ccccc4)cc3C2O)c1 (configuration not stated)
[reply] 133 to 135 °C

[ask] Please indicate melting point recorded for O=C(OCc1ccccc1)c1cc2ccccc2[nH]1
[reply] 136 °C

[ask] Please report melting point for the following molecule: COc1cc(C(C)=O)ccc1OCCCN1CCC(C(O)(c2ccccc2)c2ccc(F)cc2)CC1 (configuration not stated)
[reply] 147 to 148 °C

[ask] Supply measured melting point of Cc1c(Cl)cccc1S(=O)(=O)Nc1nc(C(C)(C)C)cs1 in your reply.
[reply] 178 °C

[ask] Assign melting point to the following record: O=Cc1c[nH]c2c1ccc1c3cc(-c4ccc(C(F)(F)F)cc4)ccc3[nH]c12
[reply] > 250 °C

[ask] Specify measured melting point for CC1(CCn2c(=O)oc3ccccc32)Cn2cc([N+](=O)[O-])nc2O1 (configuration not stated) .
[reply] 193 to 195 °C

[ask] Give the measured melting point for O=C(OCCN1CCOCC1)c1ccc(-c2n[nH]c3c2Cc2ccccc2-3)cc1
[reply] 168 to 172 °C

[ask] Provide measured melting point value, entry: CN1c2ccccc2N(C(=O)c2ccccc2)C(=O)c2cccnc21
[reply] 181 to 183 °C

[ask] Give a short answer stating reported melting point for Cn1c(C(F)F)nn(-c2cc(O)c(Cl)cc2F)c1=O .
[reply] 153 to 155 °C

[ask] State, in one line, measured melting point of CC(C)(CO)c1cc(OS(C)(=O)=O)ccc1O
[reply] 122 to 124 °C

[ask] Using known records, supply melting point for O=C(O)CCOCC(I)=C(I)I
[reply] 115 to 117 °C

[ask] Provide measured melting point value, entry: CC(C)(C)NC(=O)C(NC(C)(C)C)=C1CCCC1
[reply] 80 to 83 °C

[ask] Report melting point, nothing else, for this molecule: O=C(O)CCc1cnoc1-c1ccc(F)c(Cl)c1
[reply] 118 to 119 °C
